The measurements presented in this section are drawn from PubChem BioAssay.

Test: small molecules captured by biotinylated probe aFST – biochemical, small-molecule microarray, fluorescence 635/667, stem cell growth factor project, primary screen (AID 1086);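 note: score merges 667 nm fluorescence with signal-to-noise of each printed compound spot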
Details: higher = more signal
Measured composite z-score values are reported for all entries that follow.
The reply should be a number, written without any unit.

[[record]]
smiles_structure = "C=CCOC(=O)[C@@H]1[C@H]2C(=O)O[C@H](c3ccccc3)[C@H](c3ccccc3)N2[C@H](c2ccc(OCCOC(=O)[C@H]3C[C@H]4C(=O)N[C@@H](CCCC[N+](C)(C)C)C(=O)N4[C@H]3c3cccc(OCCO)c3)cc2)[C@@]12C(=O)Nc1ccc(I)cc12"
reported_value = 0.166


Alright, here's another compound for you.
So, O=C1O[C@@H](c2ccccc2)[C@@H](c2ccccc2)N2[C@@H](c3ccccc3OCCO)[C@]3(C(=O)Nc4ccc(C#CC5(O)CCCCCC5)cc43)[C@@H](C(=O)NC[C@H](O)c3ccccc3)[C@H]12 ? Its composite z-score was 1.74

----------
Assay: compounds binding Alexa647 anti-His antibody – biochemical, small-molecule microarray, 635 nm fluorescence, artefact control for SMM control protein annotation, primary screen (AID 1128);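 note: score merges feature fluorescence with signal-to-noise for each printed compound spot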
Conditions: higher = more signal
PARAMETER: composite z-score
Please reply with the number alone, leaving off any unit.

Some solved entries appear below for comparison.
[[record]]
molecule = "O=C1O[C@H](c2ccccc2)[C@H](c2ccccc2)N2[C@H]1[C@@H](C(=O)Nc1nc3ccccc3s1)[C@]1(C(=O)Nc3ccc(C#CC4=CCCCC4)cc31)[C@H]2c1ccc(OCCO)cc1"
reported_value = 1.62

[[record]]
molecule = "CCOC(=O)C1=C[C@@H](C(C)(C)C)N(S(=O)(=O)c2ccc(C)cc2)[C@H]1c1ccc(Cl)c(Cl)c1"
reported_value = 0.978

[[record]]
molecule = "C=C(C(=O)CC[C@@H](OC(=O)c1cccnc1)c1ccc(CO)o1)C(C)C"
reported_value = -0.403

[[record]]
molecule = "CCCNC(=O)[C@@]1(C)c2ccccc2C(=O)N(Cc2cc(C(F)(F)F)cc(C(F)(F)F)c2)[C@H]1c1ccc(CO)cc1"
reported_value = 2.41

[[record]]
molecule = "C[n+]1ccc2ccc(O)cc2c1"
reported_value = 1.81


Form: molecule = COc1ccccc1CN1C(=O)c2ccccc2[C@](Cc2ccccc2I)(C(=O)NC2CC2)[C@@H]1c1ccc(CO)cc1 ; composite z-score = 1.74

Memo: COc1cc(CO)cc(I)c1O[C@H]1C=C(C(=O)NCCO)C[C@@H](N(CCc2cccc(F)c2)C(=O)CCC2CCCC2)[C@@H]1O , reported composite z-score: 2.62

composite z-score for CCN(CC)c1ccc(N2CC=CC34O[C@@H]5C=CCOC(=O)[C@@H]5[C@H]3C(=O)N(CCCCCO)[C@@H]4C2=O)cc1 (some centres not stated) is 3.37

// sample NC(=O)NCC#Cc1ccc2c(c1)[C@]1(C(=O)N2)[C@H](C(=O)NC[C@H](O)c2ccccc2)[C@H]2C(=O)O[C@H](c3ccccc3)[C@H](c3ccccc3)N2[C@@H]1c1ccccc1OCCO , its composite z-score was 0.441

Summary for this molecule, C=C(C(=O)CC[C@@H](OC(=O)c1cccnc1)c1ccc(OCCO)cc1)C(C)C : composite z-score is 0.222

GET /value?item= C=CCCN(CC#C[C@H]1Oc2ccccc2S(=O)(=O)N2CCC[C@@H]12)S(=O)(=O)c1ccc(C)cc1 &field=composite z-score returns 0.881

----------
Some compounds, each annotated with its measured composite z-score.
Biological target: Focal adhesion kinase 1 (Homo sapiens)
Test: PTK2 protein binding on printed compound slides – biochemical, small-molecule microarray, 635/667 nm fluorescence, BSA, DTT, primary screen (AID 1130);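 note: composite of spot emission at 667 nm and signal to noise over triplicate slides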
Conditions: 635 nm fluorescence, higher = more signal
Answer as a number with no unit attached.

[[record]]
compound = "C=CCC(OC(C)=O)[C@@H]1[C@@H](N(Cc2cc3ccccc3o2)C(=O)c2cccc3ccccc23)c2cc(OCCCO)ccc2N1C(=O)Cc1ccc2ccccc2c1 (stereo not given in full)"
system_tested = "Focal adhesion kinase 1 (Homo sapiens)"
reported_value = -0.0768


The measured composite z-score associated with Oc1ccc2cc[n+](Cc3cccc(OC(F)(F)F)c3)cc2c1 reads 0.295

Form field composite z-score, entry CCN(CC)c1ccc(N2CC=CC34O[C@@H]5/C=C\CCC(C)OC(=O)C5[C@H]3C(=O)N(CCCCCCO)[C@@H]4C2=O)cc1 (stereo not given in full) : -0.182

Please fill in: composite z-score reported for COC(=O)[C@@]1(Cc2ccc(F)cc2)[C@H]2c3cc(C(=O)N(C)C)n(CCc4c[nH]c5ccc(OC)cc45)c3C[C@H]2CN1C(=O)c1ccccc1 = 0.827

composite z-score measured on Cn1c2c(c3ccccc31)C(=O)C1NC2C=CC1(C)C(=O)OCc1ccccc1 (stereo not given) = 0.0584

composite z-score reported for this compound O=C(NCC(O)CO)[C@@]1(Cc2ccccc2)N=C(c2ccc(OCCCO)cc2)O[C@H]1c1ccccc1 (stereo not given in full) : 0.0855

Value of measured composite z-score for the entry NC(=O)NCC#Cc1ccc2c(c1)[C@]1(C(=O)N2)[C@H](c2ccc(O)cc2)N2[C@H](c3ccccc3)[C@H](c3ccccc3)OC(=O)[C@H]2[C@@H]1C(=O)N1CCN(c2ncccn2)CC1 : -0.75

Form: compound = CC1(C)C(=O)C(c2ccccc2)=C2CN3C(=O)N(CCc4ccccc4)C(=O)C3(Cc3ccccc3)C=C21 (stereo not given) ; composite z-score = 0.369

For CC(=O)NCCCC[C@@H]1NC(=O)[C@@H]2C[C@H](C(=O)NCc3ccc(F)cc3)[C@H](c3ccc(O)cc3)N2C1=O the compound record lists composite z-score as 0.244

----------
System: Wnt5a (protein binding on small-molecule microarray)
Experiment: small molecules binding Wnt5a protein – biophysical, small-molecule microarray, 635/667 nm fluorescence, primary screen (AID 1142);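 note: fluorescence read at 667 nm with signal to noise per printed feature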
Settings: 635 nm fluorescence, higher = more signal
Heads up, the class ranges for composite z-score are 0: < 0.1; 1: ≥ 0.1 and < 0.6; 2: ≥ 0.6

[[record]]
molecule = "C[n+]1ccc2ccc(O)cc2c1"
system_tested = "Wnt5a (protein binding on small-molecule microarray)"
category = 1

[[record]]
molecule = "NC(=O)[C@]1(Cc2ccccc2)N=C(c2ccc(OCCCO)cc2)O[C@@H]1c1ccccc1"
system_tested = "Wnt5a (protein binding on small-molecule microarray)"
category = 0

[[record]]
molecule = "NC(=O)NCC#Cc1ccc2c(c1)[C@]1(C(=O)N2)[C@H](c2ccccc2OCCO)N2[C@H](c3ccccc3)[C@H](c3ccccc3)OC(=O)[C@H]2[C@@H]1C(=O)N1CCCCCCC1"
system_tested = "Wnt5a (protein binding on small-molecule microarray)"
category = 2


Now take the following molecule into account.
Band assignment needed for [N-]=[N+]=NCc1ccccc1[C@H]1OC(c2ccc(OCCCO)cc2)=N[C@@]1(Cc1ccccc1)C(=O)O please.
2

----------
Test: blockers of DNA damage checkpoint Chk1 activation – imaging, HeLa, hydroxyurea, phospho-Chk1 antibody, percent positive cells, primary screen (AID 1186)
Settings: hydroxyurea-induced phospho-Chk1 immunofluorescence imaging, higher = more signal
This section presents molecules with their documented z-score values.
Just the number, please, no unit after it.

[[record]]
molecule = "COc1ccc(C(O)C2C=CC3C(=O)N(c4ccccc4)C(=O)C3N2Nc2ccccc2)c2ccccc12 (configuration not stated)"
reported_value = -0.0153

[[record]]
molecule = "O=C1C2C=CC(C(O)c3ccc(Br)cc3)N(n3cnnc3)C2C(=O)N1Cc1ccccc1 (configuration not stated)"
reported_value = -0.47

[[record]]
molecule = "O=C1O[C@@H](c2ccccc2)[C@@H](c2ccccc2)N2[C@@H](c3ccc(O)cc3)[C@]3(C(=O)Nc4ccc(C#CCCO)cc43)[C@@H](C(=O)N3CCCCCCC3)[C@H]12"
reported_value = -0.149

[[record]]
molecule = "CC(C)[Si]1(C(C)C)O[C@@H](c2ccccc2)c2cc(-c3ccc(-c4ccc(Cl)c(Cl)c4)o3)nc(CCc3ccccc3)c21"
reported_value = 0.0301


// sample COc1ccc([Si](C)(C)[C@H]2[C@H](CCO)O[C@@]3(C(=O)N(Cc4ccccc4)c4ccc(N5C(=O)COc6ccccc65)cc43)[C@@H]2C)cc1 , its z-score was -0.584

Entry COC(=O)[C@@]1(Cc2ccc(F)cc2)[C@H]2c3cc(C(=O)N(C)C)n(Cc4ccccn4)c3C[C@H]2CN1C(=O)c1ccccc1 , z-score reported as 0.412

Per the record, O=C1O[C@@H](c2ccccc2)[C@@H](c2ccccc2)N2[C@@H](c3ccc(O)cc3)[C@]3(C(=O)Nc4ccccc43)[C@@H](C(=O)NC[C@H](O)c3ccccc3)[C@H]12 has z-score of -0.0877

----------
Assay: growth of efflux-deficient E. coli DRC39 – strain DRC39, OD650, 24 h, E. coli filamentation inducers, primary screen (AID 1178);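 note: growth measured as culture turbidity by optical density at 650 nm; test concentration not given here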
Details: E. coli DRC39 acrAB, higher = more signal, called active from +8 up or from −8 down
PARAMETER: z-score
Form rule: numeric answer, no unit written next to it.

For orientation, consider the following solved cases.
[[record]]
compound = "C=CC[C@]1(C(=O)NCCN2CCOCC2)N=C(c2ccc(OCCCO)cc2)O[C@H]1c1ccccc1N=[N+]=[N-]"
parameter = "z-score"
reported_value = 2.29

[[record]]
compound = "O=C1c2ccccc2[C@@]2(Cc3ccccc3N(Cc3ccccc3)C2=O)[C@H](c2ccc(CO)cc2)N1Cc1ccccc1C(F)(F)F"
parameter = "z-score"
reported_value = 0.225

[[record]]
compound = "Cc1ccccc1/C=C/C=O"
parameter = "z-score"
reported_value = 1.23

[[record]]
compound = "C=CCN1C(=O)[C@]2(Cc3ccccc31)N=C(c1ccc(OCCCO)cc1)O[C@@H]2c1ccccc1"
parameter = "z-score"
reported_value = -1.3

[[record]]
compound = "COc1ccc([Si](C)(C)[C@@H]2[C@@H](CCO)O[C@]3(C(=O)N(Cc4cccc(N(C=O)c5ccccc5)c4)c4ccccc43)[C@H]2C)cc1"
parameter = "z-score"
reported_value = -0.818


Form: compound = CC(C)C(CO)N1C(=O)[C@@H]2[C@H]3C(=O)OCC=C[C@H]3OC23C=CCN(c2ccc4ccccc4c2)C(=O)[C@@H]13 (stereo partly drawn) ; z-score = 0.483

Record CCCCC(=C=CC[C@H](O)c1ccccc1OCCO)C[C@H](O)c1cc(Cl)cc(Cl)c1O . Reported z-score: 0.504

What the record says about CCN(CC)c1ccc(N2CC=CC34O[C@@H]5C=CCCOC(=O)C5[C@H]3C(=O)N(CCCO)[C@@H]4C2=O)cc1 (stereo partly drawn) : z-score is 1.21
